Where do these numbers come from? They come from patent US20250197451A1.

- Measured on: T1, biotin-labelled EZH2 protein (UniProt Q15910 1-746, limits assumed, biotin label (EZ-link NHS-PEO4-Biotinylation kit))
- T1 construct: Probe in solution (1 ug/ml) on the KDM2B peptide microarray; also called NHS-PEO4-Biotinylation-labelled EZH2 protein; recombinant protein
- Experiment: KDM2B peptide array probed with biotin-EZH2 1 ug/ml, SA-HRP/ECL;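 further: 100% is the highest background-corrected spot optical density on the membrane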;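 further: Background-corrected optical density of each spot on the membrane, given as percent of the brightest spot (100%), color developed for 5 minutes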
Parameter measured: Intensity (%)
Give your result in % as a bare value.

[[record]]
binder = "GFKYASNLPGSLLKE [peptide 148]"
value_observed = 0


Qu. Record request: Intensity (%) value, item GRDRAPKPPTDGSTS [peptide 87]
Ans. 0

Qu. Which Intensity (%) is listed for CEACLRTECGECHFC [peptide 124] ?
Ans. 0

Qu. Using the record for YEKPQELSGRKRASS [peptide 162] , report its Intensity (%).
Ans. 0

Qu. I have this binder here, ALRVPLIFREKDGLG [peptide 21] , and I need its recorded Intensity (%).
Ans. 21.1

Qu. Requested read-out: Intensity (%). Entry: SDCNKVTDQCLSFFK [peptide 256]
Ans. 5.43

Qu. Record request: Intensity (%) value, item GSPATEVSAKWTHLT [peptide 100]
Ans. 0

Qu. Intensity (%) for QKRGPGFKYASNLPG [peptide 147] ?
Ans. 0
